# test target: Kit D816V (HMC1.2 cells, Kit V560G and D816V) (Homo sapiens, UniProt P10721, D816V/V560G)
# Construct: endogenous in cells
# Sequence (P10721 26-976 V560G/D816V): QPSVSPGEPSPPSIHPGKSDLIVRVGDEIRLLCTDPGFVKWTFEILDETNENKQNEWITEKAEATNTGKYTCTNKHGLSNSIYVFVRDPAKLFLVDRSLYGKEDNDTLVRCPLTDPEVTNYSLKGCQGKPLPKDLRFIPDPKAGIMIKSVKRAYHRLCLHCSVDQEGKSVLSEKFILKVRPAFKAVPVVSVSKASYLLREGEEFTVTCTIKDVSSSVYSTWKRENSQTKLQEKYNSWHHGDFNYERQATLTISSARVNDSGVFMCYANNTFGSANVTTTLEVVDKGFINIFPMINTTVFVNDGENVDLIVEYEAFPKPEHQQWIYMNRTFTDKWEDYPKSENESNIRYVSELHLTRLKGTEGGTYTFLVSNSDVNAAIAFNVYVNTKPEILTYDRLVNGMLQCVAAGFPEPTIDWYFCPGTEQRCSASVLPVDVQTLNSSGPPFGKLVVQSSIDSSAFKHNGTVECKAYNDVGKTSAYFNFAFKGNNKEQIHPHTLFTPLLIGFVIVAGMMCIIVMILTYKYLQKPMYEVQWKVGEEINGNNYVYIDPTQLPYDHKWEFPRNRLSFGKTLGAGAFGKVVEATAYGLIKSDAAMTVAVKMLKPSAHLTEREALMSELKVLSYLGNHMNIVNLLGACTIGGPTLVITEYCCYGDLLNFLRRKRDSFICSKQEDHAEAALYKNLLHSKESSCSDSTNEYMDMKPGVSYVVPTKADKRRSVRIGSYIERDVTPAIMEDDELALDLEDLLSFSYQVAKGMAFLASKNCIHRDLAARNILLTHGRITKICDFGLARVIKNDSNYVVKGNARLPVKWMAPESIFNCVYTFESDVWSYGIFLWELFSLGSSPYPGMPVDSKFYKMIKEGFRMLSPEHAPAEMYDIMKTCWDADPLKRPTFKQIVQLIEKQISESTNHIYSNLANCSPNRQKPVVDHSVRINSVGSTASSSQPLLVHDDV
# assay explanation: HMC1.2 autophosphorylation assay (AlphaLISA, phospho-Y719 c-Kit)
# settings: Kit autophosphorylation at tyrosine 719, 90 minutes, read-out: Cellular Activity
pIC50: −log10 of the molar value.
Can you tell me pIC50 for the items I'm about to list?

Give me pIC50 for each of these compounds, listed below.
1. Nc1cccc(Nc2ncnc(N3CCN(c4ncc(Cc5ccccc5)cn4)CC3)n2)c1 [Compound 12]
2. Cn1cc(Nc2ncnc(N3CCN(c4ncc([C@](C)(O)c5ccc(F)cc5)cn4)CC3)n2)cn1 [Compound 39]
3. OC[C@H](O)c1ccc(Nc2ncnc(N3CCN(c4ncc(Cc5ccc(F)cc5)cn4)CC3)n2)cc1 [Compound 93]

1: > 8.00; 2: 7.00 to 8.00; 3: 7.00 to 8.00

* * *

pIC50: −log10 of the molar value.
Reported pIC50 for target or system wild type Kit (Homo sapiens, UniProt P10721), by entry.

{"entry smiles": "c1ccc(Cc2cnc(N3CCN(c4ncnc(NCCCN5CCOCC5)n4)CC3)nc2)cc1", "experimental readout": "pIC50", "experimental value": "< 6.00"}
{"entry smiles": "CN1CCc2ccc(Nc3ncnc(N4CCN(c5ncc(Cc6ccccc6)cn5)CC4)n3)cc2C1", "experimental readout": "pIC50", "experimental value": "> 8.00"}
{"entry smiles": "CN1CCC[C@@H]1COc1ccc(Nc2ncnc(N3CCN(c4ncc(Cc5ccccc5)cn4)CC3)n2)cc1", "experimental readout": "pIC50", "experimental value": "> 8.00"}
{"entry smiles": "CC(C)N1CCc2ccc(Nc3ncnc(N4CCN(c5ncc(Cc6ccccc6)cn5)CC4)n3)cc2C1", "experimental readout": "pIC50", "experimental value": "> 8.00"}

I have 5 molecules here; please give me pIC50 for each one.
1. OC[C@@H]1CCCN1c1ccc(Nc2ncnc(N3CCN(c4ncc(Cc5ccccc5)cn4)CC3)n2)cc1
2. CN1CCN(c2ccc(Nc3ncnc(N4CCN(c5ncc(Cc6ccccc6)cn5)CC4)n3)cc2F)CC1
3. c1ccc(Cc2cnc(N3CCN(c4ncnc(Nc5cccc(N6CCOCC6)c5)n4)CC3)nc2)cc1
4. NC(=O)c1ccc(Nc2ncnc(N3CCN(c4ncc(Cc5ccccc5)cn4)CC3)n2)cc1
5. c1ccc(Cc2cnc(N3CCN(c4ncnc(Nc5cccc(CN6CCOCC6)c5)n4)CC3)nc2)cc1

7.00 to 7.96
7.00 to 7.96
7.00 to 7.96
7.00 to 7.96
7.00 to 7.96

Dear colleague, could you please provide pIC50 for the molecules listed below?
1. c1ccc(Cc2cnc(N3CCN(c4ncnc(Nc5ccc6c(c5)NCCC6)n4)CC3)nc2)cc1
2. COc1cc(Nc2ncnc(N3CCN(c4ncc(Cc5ccccc5)cn4)CC3)n2)cc(OC)c1
3. c1ccc(Nc2cnc(N3CCN(c4ncnc(Nc5ccccc5)n4)CC3)nc2)cc1
4. c1ccc(Cc2cnc(N3CCN(c4ncnc(Nc5ccccc5)n4)CC3)nc2)cc1

["7.00 to 7.96", "6.00 to 7.00", "6.00 to 7.00", "7.00 to 7.96"]

* * *

Could you please report measured pIC50 for the items listed next?
# test target: Kit D816V (HMC1.2 cells, Kit V560G and D816V) (Homo sapiens, UniProt P10721, D816V/V560G)
# Construct: endogenous in cells
# assay explanation: HMC1.2 autophosphorylation assay (AlphaLISA, phospho-Y719 c-Kit)
# settings: Kit autophosphorylation at tyrosine 719, 90 minutes, read-out: Cellular Activity
pIC50: −log10 of the molar value.

Field: example entries. Status: answers known.
{"compound": "c1ccc(Cc2cnc(N3CCN(c4ncnc(Nc5cc[nH]n5)n4)CC3)nc2)cc1", "pIC50": "5.00 to 6.00"}
{"compound": "CC1(C(O)c2ccc(Nc3ncnc(N4CCN(c5ncc(Cc6ccccc6)cn5)CC4)n3)cc2)COC1 (centres unmarked)", "pIC50": "7.00 to 8.00"}
{"compound": "CC(C)(O)Cn1cc(Nc2ncnc(N3CCN(c4ncc([C@](C)(O)c5ccc(F)cc5)cn4)CC3)n2)cn1", "pIC50": "7.00 to 8.00"}
{"compound": "Cc1c(Nc2ncnc(N3CCN(c4ncc(Sc5ccccc5F)cn4)CC3)n2)cnn1C1COC1", "pIC50": "6.00 to 7.00"}
{"compound": "CN(C)CCn1cc(Nc2ncnc(N3CCN(c4ncc(Cc5ccccc5)cn4)CC3)n2)cn1", "pIC50": "7.00 to 8.00"}
{"compound": "c1ccc(Cc2cnc(N3CCN(c4ncnc(Nc5cnn(C6COC6)c5)n4)CC3)nc2)cc1", "pIC50": "7.00 to 8.00"}

# per-item lookup of pIC50; items listed below
1. c1ccc(Cc2cnc(N3CCN(c4ncnc(Nc5cccc(N6CCOCC6)c5)n4)CC3)nc2)cc1
2. c1ccc(Cc2cnc(N3CCN(c4ncnc(Nc5ccc(O[C@@H]6CCCNC6)cc5)n4)CC3)nc2)cc1
3. OC[C@H](O)COc1cccc(Nc2ncnc(N3CCN(c4ncc(Cc5ccccc5)cn4)CC3)n2)c1
4. CC(=O)NCc1cccc(Nc2ncnc(N3CCN(c4ncc(Cc5ccccc5)cn4)CC3)n2)c1
5. Cc1c(Nc2ncnc(N3CCN(c4ncc(C(C)c5ccccc5)cn4)CC3)n2)cnn1C[C@@H]1CNCCO1 (some centres unmarked)
6. Fc1ccc(Cc2cnc(N3CCN(c4ncnc(Nc5ccc6c(c5)CNCC6)n4)CC3)nc2)cc1F
7. Cc1nc(N2CCN(c3ncnc(Nc4ccc5c(c4)CNCC5)n3)CC2)ncc1Cc1ccccc1
8. C=C(c1ccccc1)c1cnc(N2CCN(c3ncnc(Nc4cnn(C[C@@H]5CNCCO5)c4)n3)CC2)nc1

1: 6.00 to 7.00; 2: > 8.00; 3: 7.00 to 8.00; 4: 7.00 to 8.00; 5: 7.00 to 8.00; 6: 7.00 to 8.00; 7: 6.00 to 7.00; 8: 7.00 to 8.00

Please state, for each entry, its recorded pIC50.
1. c1ccc(C2(c3cnc(N4CCN(c5ncnc(Nc6cnn(C[C@@H]7CNCCO7)c6)n5)CC4)nc3)CC2)cc1
2. NCc1cccc(Nc2ncnc(N3CCN(c4ncc(Cc5ccccc5)cn4)CC3)n2)c1
3. CC(=O)Nc1cccc(Nc2ncnc(N3CCN(c4ncc(Cc5ccccc5)cn4)CC3)n2)c1
4. Cn1cc(Nc2ncnc(N3CCN(c4ncc(Cc5ccccc5)cn4)CC3)n2)cn1

1. 7.00 to 8.00
2. 6.00 to 7.00
3. 7.00 to 8.00
4. 6.00 to 7.00

I would be grateful if you could provide pIC50 for each of the following entries.
1. COc1ccccc1Cc1cnc(N2CCN(c3ncnc(Nc4ccc5c(c4)CNCC5)n3)CC2)nc1
2. CC1(C)CNCc2cc(Nc3ncnc(N4CCN(c5ncc(Cc6ccccc6)cn5)CC4)n3)ccc21
3. c1ccc(Cc2cnc(N3CCN(c4ncnc(Nc5ccc6c(c5)CNCCO6)n4)CC3)nc2)cc1
4. Fc1ccccc1Sc1cnc(N2CCN(c3ncnc(Nc4cnn(C[C@@H]5CNCCO5)c4)n3)CC2)nc1
5. CNCCn1cc(Nc2ncnc(N3CCN(c4ncc(Cc5ccccc5)cn4)CC3)n2)cn1

1. 6.00 to 7.00
2. > 8.00
3. 7.00 to 8.00
4. 7.00 to 8.00
5. 7.00 to 8.00

* * *

# test target: Kit D816V (HMC1.2 cells, Kit V560G and D816V) (Homo sapiens, UniProt P10721, D816V/V560G)
# Construct: endogenous in cells
# assay explanation: HMC1.2 autophosphorylation assay (AlphaLISA, phospho-Y719 c-Kit)
# settings: Kit autophosphorylation at tyrosine 719, 90 minutes, read-out: Cellular Activity
pIC50: −log10 of the molar value.
For each record, write down the corresponding pIC50.

Solved cases (2 shown):
{"molecule": "COCCn1cc(Nc2ncnc(N3CCN(c4ncc(Cc5ccccc5)cn4)CC3)n2)cn1", "pIC50": "7.00 to 8.00"}
{"molecule": "C[C@H](O)CNc1ccc(Nc2ncnc(N3CCN(c4ncc(Sc5ccccc5F)cn4)CC3)n2)cc1", "pIC50": "7.00 to 8.00"}

Batch lookup, pIC50 per entry.
1. c1ccc(Cc2cnc(N3CCN(c4ncnc(Nc5ccc(OC[C@@H]6CCCN6)cc5)n4)CC3)nc2)cc1
2. Fc1ccc(Sc2ncc(N3CCN(c4ncnc(Nc5cnn(C[C@@H]6CNCCO6)c5)n4)CC3)nn2)cc1
3. OCCNc1ccc(Nc2ncnc(N3CCN(c4ncc(Cc5ccccc5)cn4)CC3)n2)cn1
4. c1ccc(Cc2cnc(N3CCN(c4ncnc(Nc5cnn(CC6CCNC6)c5)n4)CC3)nc2)cc1 (stereo not drawn)
5. [2H]C([2H])(c1ccccc1)c1cnc(N2CCN(c3ncnc(Nc4cnn(C[C@@H]5CNCCO5)c4)n3)CC2)nc1
6. c1ccc(Cc2cnc(N3CCN(c4ncnc(Nc5ccc6c(c5)CCCNC6)n4)CC3)nc2)cc1
7. Cc1cc(N2CCNCC2)ccc1Nc1ncnc(N2CCN(c3ncc(Cc4ccccc4)cn3)CC2)n1
8. OC[C@@H](O)c1ccc(Nc2ncnc(N3CCN(c4ncc(Cc5ccccc5)cn4)CC3)n2)cc1 (single isomer, unassigned)

1: 7.00 to 8.00; 2: 7.00 to 8.00; 3: 6.00 to 7.00; 4: 7.00 to 8.00; 5: 7.00 to 8.00; 6: 7.00 to 8.00; 7: 6.00 to 7.00; 8: 7.00 to 8.00

# batch size: 2; output pIC50 per entry
1. Cc1nn(C2COC2)cc1Nc1ncnc(N2CCN(c3ncc(Sc4ccccc4F)cn3)CC2)n1
2. CC(c1ccccc1)c1cnc(N2CCN(c3ncnc(Nc4ccc5c(c4)CNCC5)n3)CC2)nc1 (stereo not drawn)

1. 7.00 to 8.00
2. 7.00 to 8.00

Dear colleague, could you please provide pIC50 for the molecules listed below?
1. Cc1c(Nc2ncnc(N3CCN(c4ncc(Cc5ccc(F)cc5)cn4)CC3)n2)cnn1C[C@@H]1CNCCO1
2. Fc1cc(O[C@H]2CCCNC2)ccc1Nc1ncnc(N2CCN(c3ncc(Cc4ccccc4)cn3)CC2)n1
3. c1ccc(Cc2cnc(N3CCN(c4ncnc(Nc5ccc(OC[C@H]6CCCN6)cc5)n4)CC3)nc2)cc1
4. Fc1ccccc1Cc1cnc(N2CCN(c3ncnc(Nc4ccc5c(c4)CNCC5)n3)CC2)nc1
5. Cc1c(Nc2ncnc(N3CCN(c4ncc(Cc5ccccc5F)cn4)CC3)n2)cnn1C[C@@H]1CNCCO1

1. > 8.00
2. 6.00 to 7.00
3. 7.00 to 8.00
4. 7.00 to 8.00
5. 7.00 to 8.00
